Source of measurements: the supplement of paper PMC10307832

Tested on: PC-3 [JPC-3]
METHOD_NOTES: relative viability (nuclei count vs DMSO), 5 days (fraction); higher = more cells survive
CONDITION_NOTES: first compound 0.006325 µM
ENDPOINT_LABEL: relative viability
In your answer, state the number alone without any accompanying words.

Reported relative viability of CCNC(=O)c1noc(-c2cc(C(C)C)c(O)cc2O)c1-c1ccc(CN2CCOCC2)cc1 [Luminespib] + CC1(C)CCC(c2ccc(Cl)cc2)=C(CN2CCN(c3ccc(C(=O)NS(=O)(=O)c4ccc(N[C@H](CCN5CCOCC5)CSc5ccccc5)c(S(=O)(=O)C(F)(F)F)c4)cc3)CC2)C1 [Navitoclax] (partner 0.5 µM) : 0.81

The compound listed as CCNC(=O)c1noc(-c2cc(C(C)C)c(O)cc2O)c1-c1ccc(CN2CCOCC2)cc1 [Luminespib] + Cc1nc(NC(=O)N2CCC[C@H]2C(N)=O)sc1-c1ccnc(C(C)(C)C(F)(F)F)c1 [Alpelisib] (partner 2 µM) shows relative viability equal to 0.908

Per the record, CCNC(=O)c1noc(-c2cc(C(C)C)c(O)cc2O)c1-c1ccc(CN2CCOCC2)cc1 [Luminespib] + Nc1ncn([C@H]2C[C@H](O)[C@@H](CO)O2)c(=O)n1 [Decitabine] (partner 2 µM) has relative viability of 0.842

Summary for this compound, CCNC(=O)c1noc(-c2cc(C(C)C)c(O)cc2O)c1-c1ccc(CN2CCOCC2)cc1 [Luminespib] + CC(=O)Nc1cccc(-n2c(=O)n(C3CC3)c(=O)c3c(Nc4ccc(I)cc4F)n(C)c(=O)c(C)c32)c1 [Trametinib] (partner 0.02 µM) : relative viability is 0.682

// sample CCNC(=O)c1noc(-c2cc(C(C)C)c(O)cc2O)c1-c1ccc(CN2CCOCC2)cc1 [Luminespib] + Nc1nc2[nH]cc(CCc3ccc(C(=O)N[C@@H](CCC(=O)O)C(=O)O)cc3)c2c(=O)[nH]1 [Pemetrexed] (partner 0.2 µM) , its relative viability was 0.342

The recorded relative viability for CCNC(=O)c1noc(-c2cc(C(C)C)c(O)cc2O)c1-c1ccc(CN2CCOCC2)cc1 [Luminespib] + CS(=O)(=O)N1CCN(Cc2cc3nc(-c4cccc5[nH]ncc45)nc(N4CCOCC4)c3s2)CC1 [Pictilisib] (partner 1 µM) is 0.726

Memo: CCNC(=O)c1noc(-c2cc(C(C)C)c(O)cc2O)c1-c1ccc(CN2CCOCC2)cc1 [Luminespib] + CS(=O)(=O)CCNCc1ccc(-c2ccc3ncnc(Nc4ccc(OCc5cccc(F)c5)c(Cl)c4)c3c2)o1 [Lapatinib] (partner 2 µM) , reported relative viability: 0.471

Entry CCNC(=O)c1noc(-c2cc(C(C)C)c(O)cc2O)c1-c1ccc(CN2CCOCC2)cc1 [Luminespib] + CC(=O)c1c(C)c2cnc(Nc3ccc(N4CCNCC4)cn3)nc2n(C2CCCC2)c1=O [Palbociclib] (partner 0.5 µM) , relative viability reported as 0.544

---

Tested on: NCI-H596
METHOD_NOTES: relative viability (nuclei count vs DMSO), 5 days (fraction); higher = more cells survive
CONDITION_NOTES: first compound 0.2 µM
Consider the following compounds; for each one, report its relative viability.
// print number alone

The compound listed as CCNC(=O)c1noc(-c2cc(C(C)C)c(O)cc2O)c1-c1ccc(CN2CCOCC2)cc1 [Luminespib] + CC(=O)Nc1cccc(-n2c(=O)n(C3CC3)c(=O)c3c(Nc4ccc(I)cc4F)n(C)c(=O)c(C)c32)c1 [Trametinib] (partner 0.02 µM) shows relative viability equal to 0.646

Record Cc1csc(=NC2CCCCC2)n1/N=C/c1ccc(O)c(O)c1O [MIM1] + Cc1nc(Nc2ncc(C(=O)Nc3c(C)cccc3Cl)s2)cc(N2CCN(CCO)CC2)n1 [Dasatinib] (partner 0.075 µM) , field relative viability: 0.646

Lookup result for CCNC(=O)c1noc(-c2cc(C(C)C)c(O)cc2O)c1-c1ccc(CN2CCOCC2)cc1 [Luminespib] + C[C@@H](Oc1cc(-c2cnn(C3CCNCC3)c2)cnc1N)c1c(Cl)ccc(F)c1Cl [Crizotinib] (partner 1 µM) ; measured relative viability: 0.938

Lab note: measured relative viability of CCNC(=O)c1noc(-c2cc(C(C)C)c(O)cc2O)c1-c1ccc(CN2CCOCC2)cc1 [Luminespib] + COc1cccc2cc(-c3nc([C@H]4CC[C@H](C(=O)O)CC4)n4ncnc(N)c34)[nH]c12 [OSI-027] (partner 0.5 µM) was 0.377
